Source listed as BindingDB's records for doi:10.1021/jm9000242.

Reported values of pIC50 for individual entries
TEST_SYSTEM: Corticotropin-releasing factor receptor 1 (Rattus norvegicus)
Sequence (P35353 whole entry): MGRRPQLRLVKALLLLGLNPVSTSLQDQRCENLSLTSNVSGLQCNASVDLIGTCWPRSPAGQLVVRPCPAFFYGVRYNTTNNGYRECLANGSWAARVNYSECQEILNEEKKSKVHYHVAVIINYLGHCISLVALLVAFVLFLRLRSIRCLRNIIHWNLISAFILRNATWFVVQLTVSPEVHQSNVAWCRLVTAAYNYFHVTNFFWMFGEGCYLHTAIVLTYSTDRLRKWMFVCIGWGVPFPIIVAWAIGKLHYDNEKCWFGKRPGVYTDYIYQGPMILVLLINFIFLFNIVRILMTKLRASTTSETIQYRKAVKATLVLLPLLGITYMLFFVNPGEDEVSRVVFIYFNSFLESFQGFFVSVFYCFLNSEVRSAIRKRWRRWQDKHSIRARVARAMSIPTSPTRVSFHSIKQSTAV
ASSAY_PROCEDURE: In Vitro Binding Autoradiography
CONDITION_PARAMETERS: pH 7.2; 23 °C
pIC50: −log10 of the molar value.
VALUE_TYPE: pIC50

compound="CC[C@@H](C)Nc1nc(C)nc2c(-c3c(C)cc(OC)cc3OC)c(C)nn12 [Pyrazolo[1,5-a]-1,3,5-triazine, 12-16]" test_system="Corticotropin-releasing factor receptor 1 (Rattus norvegicus)" reported=8.24
compound="CCCN(CC1CC1)c1nc(C)nc2c(-c3c(C)cc(OC)cc3OC)c(C)nn12 [Pyrazolo[1,5-a]-1,3,5-triazine, 12-22]" test_system="Corticotropin-releasing factor receptor 1 (Rattus norvegicus)" reported=8.83
